# Test system: DeltatarO mutant
# experiment: S. aureus survival, RN4220 and DeltatarO strains – OD600, teichoic acid synthesis inhibitors, primary screen (AID 463173)
# assay-conditions: S. aureus RN4220 wild type/DeltatarO growth, OD600, 18 h, hits give low values, screened at 18.75 µg/mL (by protocol)
The whole screen tested about 52,000 compounds, of which about 4,300 (8.3%) were called active. The sample as a whole holds a higher share of actives than the screen did.
survival reference

Here's what some known entries look like.
> print(dat)
                                   compound   subject.of.test  outcome.measure   value.reported
1  CCN(CC)S(=O)(=O)c1ccc2c(c1)N(CC(=O)NCCCN1CCN(c3ccccc3F)CC1)C(=O)CO2  DeltatarO mutant         survival   77% (inactive)
2  COc1ccc(NC(=O)c2c(C)oc3ccc(O)c(CN4CCC(C)CC4)c23)cc1  DeltatarO mutant         survival   57% (inactive)
3             CC(C)c1cc(C(=O)NCc2ccccc2)no1  DeltatarO mutant         survival   54% (inactive)
4     O=C(Cn1ncc2c(Cl)cccc21)NCc1cccc(Cl)c1  DeltatarO mutant         survival  110% (inactive)
5  CCOc1ccc(C(CC(=O)Nc2ccc(C(=O)OC)cc2)N2Cc3ccccc3C2=O)cc1OC (stereo not given)  DeltatarO mutant         survival   73% (inactive)

Entry Cn1c(CNC(=O)CSc2n[nH]c(-c3ccccc3Cl)n2)nc2ccccc21 has what survival? 75% (inactive)

Report survival for CC(C)(C)C(=O)N1CCN(c2nc3c(F)cccc3s2)CC1 please. 82% (inactive)

Quick check: survival of O=C(CNC(=O)c1ccc(Cl)cc1)OCc1cc(=O)n2nc(C3CCCCC3)sc2n1 ? 90% (inactive)

Would you mind telling me what survival value was observed for CCn1cc(C(=O)OCC(=O)Nc2cc(C)cc(C)c2)c(=O)c2ccc(C)nc21 ? 64% (inactive)

Give the measured survival of O=C(C1CCCN(S(=O)(=O)c2cccc3nsnc23)C1)N1CCN(c2ccccc2)CC1 (stereo not given) . 79% (inactive)
